Tested on: Rattus norvegicus
Assay: Percent of carageenam induced paw oedema inhibition in rat as a measure of anti-inflammatory activity at 20 mg/kg dose on peroral administration
Type: functional
Conditions: route oral
Assign Antiinflammatory Activity to each entry below.
Your answer should be a plain number; it is taken to be in %.

INPUT: Fetch value of Antiinflammatory Activity on Rattus norvegicus for `Cc1cc(C(=O)c2cccc(Cl)c2)c(O)c(C(=O)c2cccc(Cl)c2)c1` .
OUTPUT: 30.3

INPUT: Fetch value of Antiinflammatory Activity on Rattus norvegicus for `Cc1ccccc1C(=O)c1cc(C)c(O)c(C(=O)c2ccccc2)c1` .
OUTPUT: 14.1

INPUT: Fetch value of Antiinflammatory Activity on Rattus norvegicus for `CC(=O)Oc1ccccc1C(=O)O` .
OUTPUT: 30.4

###

Assign Ulcerogenic activity to each entry below.
Test system: Rattus norvegicus
Experiment: Ulcerogenic activity was measured in fasting rat with ulcer on peroral administration of 200 mg/kg
Assay type: functional
Details: route oral
Your answer should be a plain number; it is taken to be in %.

INPUT: Output measured Ulcerogenic activity for this item: `Cc1ccc(C(=O)c2cc(C(=O)c3ccccc3)cc(C)c2O)cc1`
OUTPUT: 20

INPUT: Output measured Ulcerogenic activity for this item: `Cc1cc(C(=O)c2ccccc2)c(O)c(C(=O)c2ccccc2)c1`
OUTPUT: 50

INPUT: Output measured Ulcerogenic activity for this item: `CC(=O)Oc1ccccc1C(=O)O`
OUTPUT: 90

INPUT: Output measured Ulcerogenic activity for this item: `Cc1cc(C(=O)c2cccc(Cl)c2)c(O)c(C(=O)c2cccc(Cl)c2)c1`
OUTPUT: 20

INPUT: Output measured Ulcerogenic activity for this item: `Cc1cc(C(=O)c2ccccc2C)c(O)c(C(=O)c2ccccc2C)c1`
OUTPUT: 10

INPUT: Output measured Ulcerogenic activity for this item: `CCCCC1C(=O)N(c2ccccc2)N(c2ccccc2)C1=O`
OUTPUT: 60

INPUT: Output measured Ulcerogenic activity for this item: `Cc1ccccc1C(=O)c1cc(C)c(O)c(C(=O)c2ccccc2)c1`
OUTPUT: 20

INPUT: Output measured Ulcerogenic activity for this item: `Cc1ccc(C(=O)c2cc(C)cc(C(=O)c3ccc(C)cc3)c2O)cc1`
OUTPUT: 30

###

Assign Ulcerogenic activity to each entry below.
Tested on: Rattus norvegicus
Test: Ulcerogenic activity was measured in fasting rat with ulcer on peroral administration of 400 mg/kg
Assay type: functional
Conditions: route oral
Your answer should be a plain number; it is taken to be in %.

INPUT: Output measured Ulcerogenic activity for this item: `Cc1ccccc1C(=O)c1cc(C)c(O)c(C(=O)c2ccccc2)c1`
OUTPUT: 40

INPUT: Output measured Ulcerogenic activity for this item: `Cc1ccc(C(=O)c2cc(C)cc(C(=O)c3ccc(C)cc3)c2O)cc1`
OUTPUT: 40

INPUT: Output measured Ulcerogenic activity for this item: `Cc1cc(C(=O)c2ccccc2)c(O)c(C(=O)c2ccccc2)c1`
OUTPUT: 80

INPUT: Output measured Ulcerogenic activity for this item: `Cc1cc(C(=O)c2ccccc2C)c(O)c(C(=O)c2ccccc2C)c1`
OUTPUT: 15

INPUT: Output measured Ulcerogenic activity for this item: `Cc1cc(C(=O)c2cccc(Cl)c2)c(O)c(C(=O)c2cccc(Cl)c2)c1`
OUTPUT: 12

INPUT: Output measured Ulcerogenic activity for this item: `CC(=O)Oc1ccccc1C(=O)O`
OUTPUT: 90

INPUT: Output measured Ulcerogenic activity for this item: `Cc1ccc(C(=O)c2cc(C(=O)c3ccccc3)cc(C)c2O)cc1`
OUTPUT: 40

INPUT: Output measured Ulcerogenic activity for this item: `CCCCC1C(=O)N(c2ccccc2)N(c2ccccc2)C1=O`
OUTPUT: 90

###

System: Rattus norvegicus
Assay: Ulcerogenic activity was measured in fasting rat with hyperaemia on peroral administration of 200 mg/kg
Type: functional
Details: route oral
Assign Ulcerogenic activity to each entry below.
Your answer should be a plain number; it is taken to be in %.

INPUT: Fetch value of Ulcerogenic activity on Rattus norvegicus for `Cc1ccc(C(=O)c2cc(C)cc(C(=O)c3ccc(C)cc3)c2O)cc1` .
OUTPUT: 70

INPUT: Fetch value of Ulcerogenic activity on Rattus norvegicus for `Cc1cc(C(=O)c2cccc(Cl)c2)c(O)c(C(=O)c2cccc(Cl)c2)c1` .
OUTPUT: 60

INPUT: Fetch value of Ulcerogenic activity on Rattus norvegicus for `Cc1ccc(C(=O)c2cc(C(=O)c3ccccc3)cc(C)c2O)cc1` .
OUTPUT: 90

INPUT: Fetch value of Ulcerogenic activity on Rattus norvegicus for CC(=O)Oc1ccccc1C(=O)O [ASPIRIN] .
OUTPUT: 60

INPUT: Fetch value of Ulcerogenic activity on Rattus norvegicus for `Cc1cc(C(=O)c2ccccc2)c(O)c(C(=O)c2ccccc2)c1` .
OUTPUT: 40

INPUT: Fetch value of Ulcerogenic activity on Rattus norvegicus for CCCCC1C(=O)N(c2ccccc2)N(c2ccccc2)C1=O [PHENYLBUTAZONE] .
OUTPUT: 60

INPUT: Fetch value of Ulcerogenic activity on Rattus norvegicus for `Cc1ccccc1C(=O)c1cc(C)c(O)c(C(=O)c2ccccc2)c1` .
OUTPUT: 60

INPUT: Fetch value of Ulcerogenic activity on Rattus norvegicus for `Cc1cc(C(=O)c2ccccc2C)c(O)c(C(=O)c2ccccc2C)c1` .
OUTPUT: 70

###

Test system: Rattus norvegicus
Test: Percent of carageenam induced paw oedema inhibition in rat as a measure of anti-inflammatory activity at 20 mg/kg dose on peroral administration
Format: functional
Details: route oral
Assign Antiinflammatory Activity to each entry below.
Your answer should be a plain number; it is taken to be in %.

INPUT: Output measured Antiinflammatory Activity for this item: `Cc1ccc(C(=O)c2cc(C(=O)c3ccccc3)cc(C)c2O)cc1`
OUTPUT: 20.1

INPUT: Output measured Antiinflammatory Activity for this item: CCCCC1C(=O)N(c2ccccc2)N(c2ccccc2)C1=O [PHENYLBUTAZONE]
OUTPUT: 31.3

INPUT: Output measured Antiinflammatory Activity for this item: `Cc1cc(C(=O)c2ccccc2C)c(O)c(C(=O)c2ccccc2C)c1`
OUTPUT: 16.6

INPUT: Output measured Antiinflammatory Activity for this item: `Cc1ccc(C(=O)c2cc(C)cc(C(=O)c3ccc(C)cc3)c2O)cc1`
OUTPUT: 22.2

INPUT: Output measured Antiinflammatory Activity for this item: `Cc1cc(C(=O)c2ccccc2)c(O)c(C(=O)c2ccccc2)c1`
OUTPUT: 13.7
